Assay: yeast display, Sf9 membrane polyspecificity reagent, FACS + sequencing; frameworks hold sequencing errors
measurement_name: polyreactivity (PSR sort gate)

INSERT INTO results (seq_string, measurement_name, assay_result) VALUES
  ('QVQLVESGGGLVQAGGSLRLSCAASGFTFTIYTMGWYRQAPGKERELVAAISRRGGSTYYADSVKGRFTISRDNAKNTVYLQMNSLNPEDTAVYYCAAYVPQGYKLYYWGQGTQVTGSS', 'polyreactivity (PSR sort gate)', 'high polyreactivity'),
  ('QVQLVESGGGLVQAGGSLRLSCAASGSIFGTNTMGWYRQAPGKEREFVAVITGSTTSTYYADSVKGRFTISRDNAKNTVYLQMNSLKPEDTAVYYCPTDYWWDLFEYDYWGQGTQVTVSS', 'polyreactivity (PSR sort gate)', 'high polyreactivity');
